target_of_assay: T1, Human CD47-C33G (human, UniProt Q08722 19-135)
T1 construct: also called CD47 mutein with C33G mutation
measurement_protocol: SPR, IgG captured, CD47 in flow; exp 3;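 further: biacore T200 SPR with antibodies taken from supernatants of transfected HEK293 cells, C33G mutein avoiding IgV homodimers for monovalent affinity, Kd derived from association and dissociation rate constants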
value_kind: kon
Give the figure together with its unit, number first.

Note down kon recorded for 108VH5.M18 / 108VL1.M5 (antibody, human IgG4 S228P, kappa, V domains shown, Full-length IgG4 (S228P), kappa; also called VH5.M18 VL1.M5) VH: EVQLVQSGAEVKKPGASVKVSCKASGYTFTHHWMHWVRQAPGQGLEWMGMIDASESETRYAQKFQGRVTMTRDTSTSTVYMELSSLRSEDTAVYYCARLGRYYFDYWGQGTLVTVSS VL: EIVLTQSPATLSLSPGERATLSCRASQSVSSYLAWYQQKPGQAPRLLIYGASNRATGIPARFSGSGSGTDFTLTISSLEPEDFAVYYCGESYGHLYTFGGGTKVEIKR
75000 M⁻¹ s⁻¹

Supply reported kon belonging to this binder: chimeric antibody 108C10A6 (antibody, V domains shown, Chimeric antibody with mouse variable domains; captured through human Fc; also called VH / VL) VH: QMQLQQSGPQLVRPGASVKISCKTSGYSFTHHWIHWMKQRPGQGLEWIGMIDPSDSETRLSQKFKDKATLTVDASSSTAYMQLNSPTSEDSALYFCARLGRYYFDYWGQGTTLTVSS VL: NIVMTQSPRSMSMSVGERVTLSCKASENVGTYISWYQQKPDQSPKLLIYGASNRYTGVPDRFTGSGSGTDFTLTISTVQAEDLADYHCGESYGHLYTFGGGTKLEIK
660000 M⁻¹ s⁻¹

Give the reported kon for this binder. 108VH4.M4-VL1.M1 (antibody, V domains shown, also called original humanized 108C10A6 antibody) VH: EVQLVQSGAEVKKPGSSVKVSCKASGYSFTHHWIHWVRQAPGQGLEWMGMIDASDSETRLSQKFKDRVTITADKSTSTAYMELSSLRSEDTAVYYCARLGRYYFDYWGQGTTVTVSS VL: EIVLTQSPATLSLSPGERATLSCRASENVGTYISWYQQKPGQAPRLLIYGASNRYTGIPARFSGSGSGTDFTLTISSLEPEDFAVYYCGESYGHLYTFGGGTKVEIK
430000 M⁻¹ s⁻¹
